- Test System: dopamine transporter (DAT) (Homo sapiens, UniProt Q01959)
- Construct: expressed in transfected cells; host or cells: CHO cells (membrane fractions)
- Sequence (Q01959 whole entry): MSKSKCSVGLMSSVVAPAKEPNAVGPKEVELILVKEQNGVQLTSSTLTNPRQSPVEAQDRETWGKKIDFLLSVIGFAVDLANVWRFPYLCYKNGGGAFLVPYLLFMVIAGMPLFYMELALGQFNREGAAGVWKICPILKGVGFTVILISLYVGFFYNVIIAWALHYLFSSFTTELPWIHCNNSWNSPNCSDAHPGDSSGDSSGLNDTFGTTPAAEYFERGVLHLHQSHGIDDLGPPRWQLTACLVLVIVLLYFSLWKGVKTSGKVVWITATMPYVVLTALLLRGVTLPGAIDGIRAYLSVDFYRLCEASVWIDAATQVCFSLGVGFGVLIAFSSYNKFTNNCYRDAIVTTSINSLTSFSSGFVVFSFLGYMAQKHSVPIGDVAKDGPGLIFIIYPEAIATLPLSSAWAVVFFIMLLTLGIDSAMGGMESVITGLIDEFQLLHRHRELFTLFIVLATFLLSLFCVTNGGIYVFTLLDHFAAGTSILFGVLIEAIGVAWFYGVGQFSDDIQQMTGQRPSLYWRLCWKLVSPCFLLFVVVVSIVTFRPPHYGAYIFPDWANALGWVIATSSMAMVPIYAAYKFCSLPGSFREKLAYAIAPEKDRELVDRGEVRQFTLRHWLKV
- Assay Explanation: Competitive radioligand binding assay, dopamine transporter (antagonist radioligand)
- Experimental Context: compound at 10 μM; summary
Structures can show the parent of a compound that is named as a salt.
Measured Quantity: binding to the dopamine transporter (in words)

# example entries with known answers
{"Compound": "NC(=O)OC[C@H](N)Cc1ccccc1 [APC, (R)-2-amino-3-phenylpropyl carbamate, reference compound]", "Observed Result": "substantial binding"}
{"Compound": "NC(=O)NC[C@H](N)Cc1ccccc1 [Compound 3, hydrochloride]", "Observed Result": "substantial binding"}
{"Compound": "NC(=O)SC[C@H](N)Cc1ccccc1 [Compound 10, hydrochloride]", "Observed Result": "substantial"}
{"Compound": "NC(=O)CC[C@H](N)Cc1ccccc1 [Compound 4, hydrochloride]", "Observed Result": "substantial binding"}
{"Compound": "NC(=S)OC[C@H](N)Cc1ccccc1 [Compound 8, dihydrochloride]", "Observed Result": "substantial"}

Query block: Quick one: binding to the dopamine transporter (in words) for N[C@@H](COS(N)(=O)=O)Cc1ccccc1 [Compound 9, hydrochloride] ?
Result block: substantial

* * *

- Test System: D2L dopamine receptor (D2L) (Homo sapiens, UniProt P14416)
- Construct: expressed in transfected cells; host or cells: HEK-293 cells (membrane fractions)
- Sequence (P14416 whole entry): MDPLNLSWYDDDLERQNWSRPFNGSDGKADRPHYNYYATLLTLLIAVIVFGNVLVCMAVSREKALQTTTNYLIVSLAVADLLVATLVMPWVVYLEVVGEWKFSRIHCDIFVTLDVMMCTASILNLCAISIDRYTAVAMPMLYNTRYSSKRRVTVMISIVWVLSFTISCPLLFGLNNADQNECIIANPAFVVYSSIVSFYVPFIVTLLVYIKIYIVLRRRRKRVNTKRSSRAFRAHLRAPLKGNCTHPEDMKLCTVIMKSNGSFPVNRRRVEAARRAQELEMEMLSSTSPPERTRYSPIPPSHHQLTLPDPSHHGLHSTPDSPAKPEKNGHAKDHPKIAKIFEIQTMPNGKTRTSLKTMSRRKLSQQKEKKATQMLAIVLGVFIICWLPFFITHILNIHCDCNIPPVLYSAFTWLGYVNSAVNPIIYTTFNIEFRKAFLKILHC
- Assay Explanation: Competitive radioligand binding assay, D2L (antagonist radioligand)
- Experimental Context: D2L; compound at 10 μM; 1st individual result; read-out: % inhibition of control specific binding, 1st
- Description: Compounds of the invention were tested for pharmacological activity in comparison to APC. Eight binding assays were carried out to provide a binding profile for each compound, including binding to dopamine transporter (DAT), norepinephrine transporter (NET), serotonin (5-HT) transporter (SERT), alpha2A adrenergic receptor (Alpha2A), alpha2C adrenergic receptor (Alpha2C), D2S dopamine receptor (D2S), D2L dopamine receptor (D2L), and vesicular monoamine transporter (VMAT2). […]
Structures can show the parent of a compound that is named as a salt.
Measured Quantity: inhibition at 10 µM

Query block: Quick one: inhibition at 10 µM for N[C@@H](COS(N)(=O)=O)Cc1ccccc1 [Compound 9, hydrochloride] ?
Result block: -2.2%

Query block: Quick one: inhibition at 10 µM for NC(=O)CC[C@H](N)Cc1ccccc1 [Compound 4, hydrochloride] ?
Result block: 1.4%

Query block: Quick one: inhibition at 10 µM for NC(=O)NC[C@H](N)Cc1ccccc1 [Compound 3, hydrochloride] ?
Result block: -6.7%

Query block: Quick one: inhibition at 10 µM for NC(=O)SC[C@H](N)Cc1ccccc1 [Compound 10, hydrochloride] ?
Result block: 33.7%

Query block: Quick one: inhibition at 10 µM for NC(=O)OC[C@H](N)Cc1ccccc1 [APC, (R)-2-amino-3-phenylpropyl carbamate, reference compound] ?
Result block: -0.1%

Query block: Quick one: inhibition at 10 µM for NC(=S)OC[C@H](N)Cc1ccccc1 [Compound 8, dihydrochloride] ?
Result block: -0.5%

* * *

- Test System: D2S dopamine receptor (D2S) (Homo sapiens, UniProt P14416)
- Construct: expressed in transfected cells; host or cells: HEK-293 cells (membrane fractions)
- Sequence (P14416 1-414 isoform P14416-2): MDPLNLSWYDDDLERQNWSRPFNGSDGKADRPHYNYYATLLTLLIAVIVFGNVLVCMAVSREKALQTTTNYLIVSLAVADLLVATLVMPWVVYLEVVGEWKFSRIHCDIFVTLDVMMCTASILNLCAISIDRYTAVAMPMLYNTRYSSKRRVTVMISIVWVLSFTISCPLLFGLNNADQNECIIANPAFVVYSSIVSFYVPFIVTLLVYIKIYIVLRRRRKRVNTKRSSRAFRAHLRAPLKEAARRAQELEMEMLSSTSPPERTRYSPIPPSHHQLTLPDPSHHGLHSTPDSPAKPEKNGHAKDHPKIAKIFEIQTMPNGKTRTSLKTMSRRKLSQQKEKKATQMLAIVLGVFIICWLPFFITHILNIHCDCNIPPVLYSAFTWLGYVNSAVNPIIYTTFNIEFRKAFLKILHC
- Assay Explanation: Competitive radioligand binding assay, D2S (agonist radioligand)
- Experimental Context: D2S; compound at 10 μM; 1st individual result; read-out: % inhibition of control specific binding, 1st
Structures can show the parent of a compound that is named as a salt.
Each entry below carries its recorded inhibition at 10 µM.
Reply numerically in %, unit not repeated.

# example entries with known answers
{"Molecule": "NC(=O)OC[C@H](N)Cc1ccccc1 [APC, (R)-2-amino-3-phenylpropyl carbamate, reference compound]", "Test System": "D2S dopamine receptor (D2S) (Homo sapiens, UniProt P14416)", "Measured Quantity": "inhibition at 10 µM", "Units": "%", "Observed Result": 0.7}
{"Molecule": "NC(=O)SC[C@H](N)Cc1ccccc1 [Compound 10, hydrochloride]", "Test System": "D2S dopamine receptor (D2S) (Homo sapiens, UniProt P14416)", "Measured Quantity": "inhibition at 10 µM", "Units": "%", "Observed Result": 89.5}
{"Molecule": "NC(=S)OC[C@H](N)Cc1ccccc1 [Compound 8, dihydrochloride]", "Test System": "D2S dopamine receptor (D2S) (Homo sapiens, UniProt P14416)", "Measured Quantity": "inhibition at 10 µM", "Units": "%", "Observed Result": 33.5}
{"Molecule": "NC(=O)CC[C@H](N)Cc1ccccc1 [Compound 4, hydrochloride]", "Test System": "D2S dopamine receptor (D2S) (Homo sapiens, UniProt P14416)", "Measured Quantity": "inhibition at 10 µM", "Units": "%", "Observed Result": -8.2}
{"Molecule": "N[C@@H](COS(N)(=O)=O)Cc1ccccc1 [Compound 9, hydrochloride]", "Test System": "D2S dopamine receptor (D2S) (Homo sapiens, UniProt P14416)", "Measured Quantity": "inhibition at 10 µM", "Units": "%", "Observed Result": 45.3}

# next molecule below
Query block: Test system D2S dopamine receptor (D2S) (Homo sapiens, UniProt P14416); read-out inhibition at 10 µM; what value for NC(=O)NC[C@H](N)Cc1ccccc1 [Compound 3, hydrochloride] ?
Result block: -1.6
